Listed here: items and their measured -Log EC50.
- Species on record: Rattus norvegicus
- experiment.summary: Muscarinic potency was measured in rat bladder
- Format: functional
Simply state the number, no unit and no words.

Solved cases below.
>  <molecule>
C[C@H]1OC[C@@H](C[N+](C)(C)C)O1 (racemic)

>  <measured.number>
6.91

$$$$
>  <molecule>
C[C@@H]1O[C@H](C[N+](C)(C)C)CC1=O

>  <measured.number>
7.28

$$$$

Lab book: -Log EC50 of C=C1C[C@@H](C[N+](C)(C)C)O[C@H]1C noted as 6.13

# -Log EC50 (molecule: CN1OC(C[N+](C)(C)C)CC1=O (racemic) ) is 6.44

The molecule identified as C[C@@H]1O[C@H](C[N+](C)(C)C)CS1 (mixture of isomers) registered its -Log EC50 at 6.64

Given item C[C@H]1CC[C@@H](C[N+](C)(C)C)O1 (racemic) , the value recorded as its -Log EC50 is 5.62
